EXPERIMENT SUMMARY: terephthalic acid (TPA) released, HPLC; higher = more TPA released; extreme values may be limits of the assay
PROTOCOL CONDITIONS: PET substrate: cryPow; 60 °C; pH 5.5; 24 h
EXPERIMENTAL READOUT: terephthalic acid (mM)
Numbers only, in mM.

Worked set:
SEQ STRING	VALUE UNIT	terephthalic acid
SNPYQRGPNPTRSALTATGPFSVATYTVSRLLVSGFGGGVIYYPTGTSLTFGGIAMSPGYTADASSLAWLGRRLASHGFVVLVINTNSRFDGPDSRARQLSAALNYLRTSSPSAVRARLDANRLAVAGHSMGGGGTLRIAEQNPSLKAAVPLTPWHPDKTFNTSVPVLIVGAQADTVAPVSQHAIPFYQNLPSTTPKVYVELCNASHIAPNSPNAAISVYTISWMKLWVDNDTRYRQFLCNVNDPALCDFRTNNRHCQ [LCC-ICCG I6M]	mM	0.102
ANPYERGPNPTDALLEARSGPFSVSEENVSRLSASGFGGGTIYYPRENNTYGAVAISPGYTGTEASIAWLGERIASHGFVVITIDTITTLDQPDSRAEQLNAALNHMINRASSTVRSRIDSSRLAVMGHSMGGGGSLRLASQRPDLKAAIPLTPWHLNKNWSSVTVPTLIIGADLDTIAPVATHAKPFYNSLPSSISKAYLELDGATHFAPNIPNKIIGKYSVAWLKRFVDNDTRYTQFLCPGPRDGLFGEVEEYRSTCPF [TfCut2]	mM	0.0031

# next sequence below
Record request: terephthalic acid value, item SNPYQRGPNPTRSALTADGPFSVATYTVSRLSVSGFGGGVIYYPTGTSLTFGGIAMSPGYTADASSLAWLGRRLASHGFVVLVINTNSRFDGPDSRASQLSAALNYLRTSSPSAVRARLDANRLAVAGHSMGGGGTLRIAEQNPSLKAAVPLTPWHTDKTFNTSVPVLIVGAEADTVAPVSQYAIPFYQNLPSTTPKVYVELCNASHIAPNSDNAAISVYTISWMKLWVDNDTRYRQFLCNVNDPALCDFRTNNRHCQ [LCC-A2]
0.132
